Entry source: ChEMBL document CHEMBL4513216

Overview of reported cytotoxicity at 10 µM across a group of molecules:
# experiment.notes: Toxicity liver stage against HepG2, at 10uM
# Assay type: cell-based
# Design: test concentration 10 uM, cell line HepG2-A16-CD81EGFP
# experimental.parameters: human, HepG2-A16-CD81EGFP cells; read-out: INHIBITION
measurement.name: cytotoxicity at 10 µM

1. NCC1(c2cccc(F)c2)CCOCC1    -7.87%
2. Cc1ncsc1C(=O)N1CCCC(n2cncn2)C1 (stereo unspecified)    0.364%
3. N#Cc1ccc(N2CCCC2Cn2cncn2)nc1 (stereo unspecified)    6.05%
4. CN(C)C(=O)c1ccc2c(c1)N(C)C(CC(=O)NCCOCCO)CO2 (stereo unspecified)    -7.96%
5. O=C(NCc1ccc2nonc2c1)C1CCN(C(=O)C2CCC2)CC1    -8.61%
6. Cn1c(CO)nnc1CC1CCN(Cc2ccc(C#N)cc2)CC1    4.98%
